Where do these numbers come from? They come from ChEMBL document CHEMBL4007475.

Species on record: Homo sapiens
test name: Selectivity index, ratio of IC50 for butyrylcholinesterase (unknown origin) to IC50 for acetylcholinesterase (unknown origin)
Readings of Ratio IC50 for the listed compounds
Hey, just send me the number, nothing else.

Worked examples follow.
>>> assay_result("N#CC1=C(N)N(Cc2ccccc2)C(NCc2ccccc2)=C([N+](=O)[O-])C12c1ccccc1-c1nc3ccccc3nc12 (stereo not drawn)")
1.62
>>> assay_result("N#CC1=C(N)N2CCCNC2=C([N+](=O)[O-])C12c1ccccc1-c1nc3ccc([N+](=O)[O-])cc3nc12 (stereo not drawn)")
2.49
>>> assay_result("CC1(C)CNC2=C([N+](=O)[O-])C3(C(C#N)=C(N)N2C1)c1ccccc1-c1nc2ccc([N+](=O)[O-])cc2nc13 (stereo not drawn)")
2.81
>>> assay_result("N#CC1=C(N)N(Cc2ccccc2)C(NCc2ccccc2)=C([N+](=O)[O-])C12c1ccccc1-c1nc3ccc([N+](=O)[O-])cc3nc12 (stereo not drawn)")
2.07
>>> assay_result("Cc1cc2nc3c(nc2cc1C)C1(C(C#N)=C(N)N2CC(C)(C)CNC2=C1[N+](=O)[O-])c1ccccc1-3 (stereo not drawn)")
2.2

Quick check: Ratio IC50 of N#CC1=C(N)N2CCNC2=C([N+](=O)[O-])C12c1ccccc1-c1nc3ccccc3nc12 (stereo not drawn) ?
1.31

Quick check: Ratio IC50 of Cc1cc2nc3c(nc2cc1C)C1(C(C#N)=C(N)N(Cc2ccccc2)C(NCc2ccccc2)=C1[N+](=O)[O-])c1ccccc1-3 (stereo not drawn) ?
1.53

Quick check: Ratio IC50 of N#CC1=C(N)N2CCCNC2=C([N+](=O)[O-])C12c1ccccc1-c1nc3ccccc3nc12 (stereo not drawn) ?
2.43

----------
Readings of Ratio IC50 for the listed compounds
Species on record: Homo sapiens
test name: Selectivity index, ratio of IC50 for butyrylcholinesterase (unknown origin) to IC50 for acetylcholinesterase (unknown origin)
Hey, just send me the number, nothing else.

Worked examples follow.
>>> assay_result("Cc1cc2nc3c(nc2cc1C)C1(C(C#N)=C(N)N2CCNC2=C1[N+](=O)[O-])c1ccccc1-3 (centres undefined)")
1.11
>>> assay_result("N#CC1=C(N)N2CCNC2=C([N+](=O)[O-])C12c1ccccc1-c1nc3ccc([N+](=O)[O-])cc3nc12 (centres undefined)")
1.48
>>> assay_result("CC1(C)CNC2=C([N+](=O)[O-])C3(C(C#N)=C(N)N2C1)c1ccccc1-c1nc2ccccc2nc13 (centres undefined)")
2.28

Quick check: Ratio IC50 of Cc1cc2nc3c(nc2cc1C)C1(C(C#N)=C(N)N2CCCNC2=C1[N+](=O)[O-])c1ccccc1-3 (centres undefined) ?
1.67

----------
target of assay: UniProt P22303
Sequence (P22303 whole entry): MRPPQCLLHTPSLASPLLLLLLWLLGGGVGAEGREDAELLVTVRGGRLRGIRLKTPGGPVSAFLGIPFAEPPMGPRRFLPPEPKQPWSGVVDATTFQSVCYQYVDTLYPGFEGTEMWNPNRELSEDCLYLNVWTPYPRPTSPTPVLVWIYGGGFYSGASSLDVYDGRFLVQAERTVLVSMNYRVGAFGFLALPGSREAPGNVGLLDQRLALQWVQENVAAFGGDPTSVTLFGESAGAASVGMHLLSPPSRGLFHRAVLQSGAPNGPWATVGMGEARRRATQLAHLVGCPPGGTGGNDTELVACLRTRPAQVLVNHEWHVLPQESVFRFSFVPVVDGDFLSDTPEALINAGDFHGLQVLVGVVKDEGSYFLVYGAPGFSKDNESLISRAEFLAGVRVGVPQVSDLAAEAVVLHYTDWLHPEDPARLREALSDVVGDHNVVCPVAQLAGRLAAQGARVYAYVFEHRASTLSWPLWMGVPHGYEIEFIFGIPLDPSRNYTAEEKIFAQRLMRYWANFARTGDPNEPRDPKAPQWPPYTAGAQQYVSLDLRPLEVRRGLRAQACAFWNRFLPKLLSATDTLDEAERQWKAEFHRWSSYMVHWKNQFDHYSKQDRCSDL
Readings of IC50 for the listed compounds
Answers without a unit are incomplete; give the number and then its unit.

Worked examples follow.
>>> assay_result("CC1(C)CNC2=C([N+](=O)[O-])C3(C(C#N)=C(N)N2C1)c1ccccc1-c1nc2ccc([N+](=O)[O-])cc2nc13 (stereo not given)")
"3.6 µM"
>>> assay_result("N#CC1=C(N)N2CCCNC2=C([N+](=O)[O-])C12c1ccccc1-c1nc3ccccc3nc12 (stereo not given)")
"4.2 µM"

Quick check: IC50 of Cc1cc2nc3c(nc2cc1C)C1(C(C#N)=C(N)N2CC(C)(C)CNC2=C1[N+](=O)[O-])c1ccccc1-3 (stereo not given) ?
4 µM

Quick check: IC50 of N#CC1=C(N)N2CCNC2=C([N+](=O)[O-])C12c1ccccc1-c1nc3ccccc3nc12 (stereo not given) ?
6.4 µM

Quick check: IC50 of N#CC1=C(N)N2CCNC2=C([N+](=O)[O-])C12c1ccccc1-c1nc3ccc([N+](=O)[O-])cc3nc12 (stereo not given) ?
6.5 µM
